Target: T1, human ST2L extracellular domain with C-terminal His6 tag (human, UniProt Q01638 19-328)
T1 construct: also called huST2L-ECD; ST2L-ECD
T1 sequence: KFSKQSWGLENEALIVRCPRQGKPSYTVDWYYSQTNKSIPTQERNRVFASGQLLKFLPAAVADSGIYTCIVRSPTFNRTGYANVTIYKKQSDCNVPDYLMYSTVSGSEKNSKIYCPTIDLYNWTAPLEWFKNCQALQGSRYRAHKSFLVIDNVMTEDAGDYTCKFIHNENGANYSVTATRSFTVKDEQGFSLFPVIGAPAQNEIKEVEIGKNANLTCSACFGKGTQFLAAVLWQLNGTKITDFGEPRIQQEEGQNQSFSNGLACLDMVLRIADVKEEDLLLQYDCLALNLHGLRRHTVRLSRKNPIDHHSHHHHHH
Assay: ProteOn SPR, mAb captured, ST2L-ECD in solution
property name: koff (s⁻¹)
Answers are plain numbers, in s⁻¹.

Provide koff values for the following items, in order.
1. STLM203 (antibody, V domains shown, C2494 HFA mAb: VH STLH194 + VL STLL274 (O12)) VH: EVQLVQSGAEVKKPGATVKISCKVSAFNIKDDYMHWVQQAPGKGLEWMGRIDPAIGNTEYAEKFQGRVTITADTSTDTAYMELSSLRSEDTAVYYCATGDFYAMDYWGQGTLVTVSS VL: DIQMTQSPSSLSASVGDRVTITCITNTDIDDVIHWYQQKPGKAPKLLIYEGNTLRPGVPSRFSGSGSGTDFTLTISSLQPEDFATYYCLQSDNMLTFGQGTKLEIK
2. STLM190 (antibody, V domains shown, C2494 HFA mAb: VH STLH195 + VL STLL277 (L8)) VH: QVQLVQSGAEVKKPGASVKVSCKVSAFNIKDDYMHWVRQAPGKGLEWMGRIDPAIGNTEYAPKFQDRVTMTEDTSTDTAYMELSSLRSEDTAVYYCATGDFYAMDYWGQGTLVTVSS VL: DIQLTQSPSFLSASVGDRVTITCITNTDIDDVIHWYQQKPGKAPKLLIYEGNTLRPGVPSRFSGSGSGTEFTLTISSLQPEDFATYYCLQSDNMLTFGQGTKLEIK

Result string:
0.000967
0.0534
